Hey, just so you know, these numbers are from patent US20260132182A1.

Entries annotated with measured Human GLP-1R potency [EC50 (pM)]
molecular target: human GLP-1 receptor (human, UniProt P43220 24-463); assay: cell-based or functional assay
Starred links: 1 amine or outer side, 2 acyl side, 3 side chain; linkers in the order of their positions; H or OH if unused. Non-standard residues stand in square brackets, D forms with d. Groups on a side chain read outwards from the residue. *: point of attachment. C20 diacid = O=C(O)CCCCCCCCCCCCCCCCCCC(=O)*; C18 diacid = O=C(O)CCCCCCCCCCCCCCCCC(=O)*; γGlu = O=C(O)[C@H](CCC(=O)[*:2])N[*:1]; εLys = N[C@@H](CCCCN[*:1])C(=O)[*:2]; Trx = NC[C@H]1CC[C@H](C(=O)O)CC1; AEEA = NCCOCCOCC(=O)O; Aib = CC(C)(N)C(=O)O
reported_metric: Human GLP-1R potency [EC50 (pM)]

INSERT INTO assay_data (binder, output_unit, data_value) VALUES
  ('Compound 0657 (peptide) peptide: H[Aib]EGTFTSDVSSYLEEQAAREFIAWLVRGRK([εLys-εLys-γGlu-C20 diacid])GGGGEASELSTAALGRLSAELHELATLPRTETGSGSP-NH2', 'pM', 9.9),
  ('Compound 0434 (peptide) peptide: HWEGTFTSDVSSYLEEK([εLys-AEEA-AEEA-γGlu-Trx-C20 diacid])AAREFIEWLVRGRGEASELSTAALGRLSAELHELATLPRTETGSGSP-NH2', 'pM', 11.8),
  ('Compound 0271 (peptide) peptide: HWEGTFTSDVSSYLEEK([AEEA-AEEA-γGlu-C18 diacid])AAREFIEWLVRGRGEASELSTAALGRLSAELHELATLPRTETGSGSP-NH2', 'pM', 4.6),
  ('Compound 0417 (peptide) peptide: H[Aib]EGTFTSK([AEEA-AEEA-γGlu-Trx-C20 diacid])VSSYLEEQAAREFIEWLVRGRGEASELSTAALGRLSAELHELATLPRTETGSGSP-NH2', 'pM', 97.8);
